// provenance: the supplement of paper PMC11451515

System: P12-Ichikawa
Test: cell viability relative to DMSO control; higher = less cytotoxic
Conditions: RPMI 5 mM glucose + 10% dialyzed FBS; 48 h; 0.569 µM
Value Kind: cell viability (%)

>  <Structure Smiles String>
O=C1\C=C/C[C@@H]2[C@H]3CCCN4CCC[C@@H](CN12)[C@@H]34

>  <Value Kind>
cell viability

>  <Value Reported>
105

$$$$
>  <Structure Smiles String>
NC(CO)(CO)CCc1ccc(Sc2cccc(OCc3ccccc3)c2)cc1Cl

>  <Value Kind>
cell viability

>  <Value Reported>
89.9

$$$$
>  <Structure Smiles String>
OC[C@H]1O[C@H]([C@@H](F)[C@@H]1O)N2\C=C/C(=O)NC2=O

>  <Value Kind>
cell viability

>  <Value Reported>
105

$$$$
>  <Structure Smiles String>
CC[C@H]1/C=C\C=C/C[C@@H](C)[C@H](O)[C@@](C)(O)C(=O)[C@@H](C)[C@H](O)[C@@H](C)C(=O)[C@@H](C)[C@H](O)[C@@H](C)/C=C/C(=O)O[C@@H]2[C@H](C)[C@H](CC1)O[C@]1(CC[C@H](C)[C@H](C[C@@H](C)O)O1)[C@H]2C

>  <Value Kind>
cell viability

>  <Value Reported>
92.2

$$$$
>  <Structure Smiles String>
O=C1C[C@@H](c2ccc(O)cc2)Oc2cc(O)cc(O)c21

>  <Value Kind>
cell viability

>  <Value Reported>
120

$$$$
>  <Structure Smiles String>
C=CC1=C(C(=O)O)N2C(=O)[C@@H](NC(=O)/C(=N\O)c3csc(N)n3)[C@H]2SC1

>  <Value Kind>
cell viability

>  <Value Reported>
117

$$$$
>  <Structure Smiles String>
CC(=O)O[C@@]1(CC[C@H]2[C@@H]3\C=C(C)/C4=C/C(=O)CC[C@]4(C)[C@H]3CC[C@]12C)C(C)=O

>  <Value Kind>
cell viability

>  <Value Reported>
106

$$$$
>  <Structure Smiles String>
N[S+](=O)([O-])c1cc(Cl)c(Cl)c([S+](N)(=O)[O-])c1

>  <Value Kind>
cell viability

>  <Value Reported>
105

$$$$
>  <Structure Smiles String>
C[N+]1(C)[C@@H]2C[C@@H](OC(=O)[C@H](CO)c3ccccc3)C[C@H]1[C@@H]1O[C@@H]12.[Br-]

>  <Value Kind>
cell viability

>  <Value Reported>
101

$$$$
>  <Structure Smiles String>
CCc1c(C(=O)C(N)=O)c2c(OCC(=O)O)cccc2n1Cc1ccccc1

>  <Value Kind>
cell viability

>  <Value Reported>
91.8

$$$$
>  <Structure Smiles String>
CC(C)(C)C(=O)OCOP(=O)(COCCn1cnc2c(N)ncnc21)OCOC(=O)C(C)(C)C

>  <Value Kind>
cell viability

>  <Value Reported>
61.6

$$$$
>  <Structure Smiles String>
C[C@H]1C[C@H]2[C@@H]3CCC4=CC(=O)C=C[C@]4(C)[C@@]3(F)[C@@H](O)C[C@]2(C)[C@@]1(O)C(=O)CO

>  <Value Kind>
cell viability

>  <Value Reported>
56

$$$$
>  <Structure Smiles String>
CC(C)n1nc(-c2ccc3oc(N)nc3c2)c2c(N)ncnc21

>  <Value Kind>
cell viability

>  <Value Reported>
45

$$$$
>  <Structure Smiles String>
NC1=NC=C(C=C1)C2=CC=C3N=CC\4=C(N(C(=O)\C=C4)C5=CC(=CC=C5)C(F)(F)F)C3=C2

>  <Value Kind>
cell viability

>  <Value Reported>
30.4

$$$$
>  <Structure Smiles String>
Clc1cc(Cl)cc(CNc2ncncc2-c2ccc3c(c2)OCO3)c1

>  <Value Kind>
cell viability

>  <Value Reported>
92.7

$$$$
>  <Structure Smiles String>
CC(=O)N1CCN(c2ccc(OC[C@H]3CO[C@](Cn4ccnc4)(c4ccc(Cl)cc4Cl)O3)cc2)CC1

>  <Value Kind>
cell viability

>  <Value Reported>
101

$$$$
